B1: Segment polarity protein dishevelled homolog DVL-3, residues 2 to 81; numbered along this chain, Q92997 (parent)
chain: GETKIIYHLDGQETPYLVKLPLPAERVTLADFKGVLQRPSYKFFFKSMDDDFGVVKEEISDDNAKLPCFNGRVVSWLVSA

- Variants of: B1
- assayInfo: abundance fitness (aPCA) (normalised: wild type 0, dead -1); higher = more abundant; growth selection in yeast, the domain comes from the species named
- assayConditions: Homo sapiens
Mark 0.0 for abundance fitness values under -0.4, and 1.0 for everything at or above.

Some solved entries appear below for comparison.
[[record]]
sequencetext = "GETKIIYHLDGQETPYLVKLPLPAERVTLADFKGVLQRPSYKFFFKSMDDDFGVVKEEISDDNAKLPCFNGNVVSWLVSA [R72N]"
answerlabel = 1.0

[[record]]
sequencetext = "GETKIIYHLDGQETPYLVKLPLPAERVTLADFKGVLQQPSYKFFFKSMDDDFGVVKEEISDDNAKLPCFNGRVVSWLVSA [R38Q]"
answerlabel = 1.0

[[record]]
sequencetext = "GETKIIYHLDGQETPYLVKLPLPAERVTLADFKGVLQRPSYKFFFKSMDDDFGVVKEEISDDNAKLPCHNGRVVSWLVSA [F69H]"
answerlabel = 1.0

[[record]]
sequencetext = "GETKIIYHLDGQETPYLVKDPLPAERVTLADFKGVLQRPSYKFFFKSMDDDFGVVKEEISDDNAKLPCFNGRVVSWLVSA [L20D]"
answerlabel = 0.0

[[record]]
sequencetext = "GETKIIYHLDGQETPYLVKLPLPGERVTLADFKGVLQRPSYKFFFKSMDDDFGVVKEEISDDNAKLPCFNGRVVSWLVSA [A24G]"
answerlabel = 1.0


# bool: abundance fitness of GETKIIYHLDGQETPYLVKLPLPAERVTLADFKGVLQRPSYKFFFKSMDDDFGVVKEEISDMNAKLPCFNGRVVSWLVSA [D62M] >= -0.4
0.0

Consider next the variant GETKIIYHLDGQETPYLVKLPLPAERVTLADFKGVLQRPSYKFFFKSMDDDFGVVKEEISDDNAKLPCFFGRVVSWLVSA [N70F] in the same way.
0.0

Consider next the variant GETKIIYHLDGQETPYLVKLPLPAERVTLADFKGVLQRPSYKFFFKSMEDDFGVVKEEISDDNAKLPCFNGRVVSWLVSA [D49E] in the same way.
1.0

Consider next the variant GETKIIYHLDGQETPYLVKLPLPAERVTLADFKGVLQRPSYKFFFKSMDDDFGVVKEEISDDNAKLFCFNGRVVSWLVSA [P67F] in the same way.
0.0

Consider next the variant GETKIIYHLDGQETPYLVKLPLPAERVTLADFKGVLQRPSYKFFFKDMDDDFGVVKEEISDDNAKLPCFNGRVVSWLVSA [S47D] in the same way.
0.0

Consider next the variant GETKIIYHLDGQETPYLVKLPLPAKRVTLADFKGVLQRPSYKFFFKSMDDDFGVVKEEISDDNAKLPCFNGRVVSWLVSA [E25K] in the same way.
0.0

Every entry's value here was drawn from the Human Domainome abundance scans (Beltran et al. 2025).
